- study.target: T1, human MSR1 with a C-terminal Myc tag expressed on HEK293.Myc.hMSR1 cells (human, UniProt P21757 1-451)
- T1 sequence (looked up): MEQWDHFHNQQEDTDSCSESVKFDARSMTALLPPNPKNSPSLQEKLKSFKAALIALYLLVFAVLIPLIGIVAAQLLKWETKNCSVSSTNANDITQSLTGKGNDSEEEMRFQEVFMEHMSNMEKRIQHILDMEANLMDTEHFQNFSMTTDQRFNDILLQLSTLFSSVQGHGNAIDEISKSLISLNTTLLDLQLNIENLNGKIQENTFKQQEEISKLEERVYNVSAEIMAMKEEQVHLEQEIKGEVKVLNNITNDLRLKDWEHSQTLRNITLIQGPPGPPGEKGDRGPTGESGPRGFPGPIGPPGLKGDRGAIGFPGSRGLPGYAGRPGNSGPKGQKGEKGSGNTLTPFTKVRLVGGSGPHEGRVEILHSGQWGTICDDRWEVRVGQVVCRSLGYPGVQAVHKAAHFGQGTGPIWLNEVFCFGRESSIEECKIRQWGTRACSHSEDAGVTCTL
- assay.protocol: cell-based or functional assay
quantity.name: IC50 of inhibition of Dil-Oxidized LDL uptake (nM)
Express your answer in nM, writing the number without its unit.

Example results:
{"columns": ["binder", "assay.value"],
 "data": [
  ["H1H27754P-N297Q (antibody, V domains shown) VH: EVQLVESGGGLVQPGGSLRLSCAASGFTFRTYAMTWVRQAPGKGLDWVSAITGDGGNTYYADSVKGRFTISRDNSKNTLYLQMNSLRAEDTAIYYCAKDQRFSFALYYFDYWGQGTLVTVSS VL: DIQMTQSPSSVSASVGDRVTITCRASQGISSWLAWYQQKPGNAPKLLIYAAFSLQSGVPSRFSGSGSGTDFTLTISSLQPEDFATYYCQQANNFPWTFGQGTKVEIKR", 4.6],
  ["H2aM21227N (antibody, V domains shown) VH: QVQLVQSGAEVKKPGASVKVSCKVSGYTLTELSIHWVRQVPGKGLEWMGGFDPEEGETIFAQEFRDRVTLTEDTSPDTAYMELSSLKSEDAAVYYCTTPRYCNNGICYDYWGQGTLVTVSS VL: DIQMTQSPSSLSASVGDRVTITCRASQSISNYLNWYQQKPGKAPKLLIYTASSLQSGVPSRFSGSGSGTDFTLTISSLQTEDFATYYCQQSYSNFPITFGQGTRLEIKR", 3.1]
]}

Below: the item to evaluate.
INPUT: For the binder shown here, H1H27734P-N297Q (antibody, V domains shown) VH: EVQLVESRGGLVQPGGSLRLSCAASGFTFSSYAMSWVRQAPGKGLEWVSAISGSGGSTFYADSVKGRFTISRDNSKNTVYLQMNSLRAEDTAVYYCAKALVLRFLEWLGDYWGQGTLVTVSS VL: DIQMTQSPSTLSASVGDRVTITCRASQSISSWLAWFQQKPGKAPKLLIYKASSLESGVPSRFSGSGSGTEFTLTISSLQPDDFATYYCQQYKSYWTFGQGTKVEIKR , give the reported IC50 of inhibition of Dil-Oxidized LDL uptake.
OUTPUT: 5.5
